- Test system: A549luc
- runDescription: Cell viability, A549luc
- Format: cell-based
- conditionSet: Homo sapiens
recordedMetric: IC50 (µM)
Give just the number in µM; leave the unit off.

Value lookup for IC50; key = CN(C)CCCN1c2ccccc2Sc2ccc(Cl)cc21 [chlorpromazine]
20
